Data credit: PubChem BioAssay (NCI)

# System: K-562 leukemia
# PROTOCOL DESCRIPTION: NCI tumour cell line growth inhibition, 48 h

- COMPOUND SMILES: "CCSc1nc(SCC)c2c(-c3ccc(OC)c(OC)c3)c(C#N)c(SCC)nc2n1"
  READOUT QUALIFIER: ">"
  TGI / µM: 100
- COMPOUND SMILES: "c1ccc2[nH]c(-c3cc(-c4ccc5c(c4)OCO5)n[nH]3)nc2c1"
  READOUT QUALIFIER: "="
  TGI / µM: 22.1
- COMPOUND SMILES: "O=S(=O)(/C=C/CS(=O)(=O)c1ccccc1)c1ccccc1"
  READOUT QUALIFIER: "="
  TGI / µM: 98.4
- COMPOUND SMILES: "Cc1[nH]c2ccc(F)cc2c1-c1nc2c3cccnc3c3ncccc3c2[nH]1"
  READOUT QUALIFIER: ">"
  TGI / µM: 100
- COMPOUND SMILES: "CC(C)NC(=O)OCc1c2c(n(C)c1COC(=O)NC(C)C)-c1ccccc1CC2"
  READOUT QUALIFIER: ">"
  TGI / µM: 38.5
- COMPOUND SMILES: "O=C(Nc1ccc(Cl)cc1)c1cc(S(=O)(=O)Nc2nnc3c(Cl)cc(C(F)(F)F)cn23)c(S)cc1Cl"
  READOUT QUALIFIER: ">"
  TGI / µM: 100
- COMPOUND SMILES: "NC(=O)NC12CC3CC(CC(F)(C3)C1)C2"
  READOUT QUALIFIER: ">"
  TGI / µM: 100
- COMPOUND SMILES: "COC(=O)/C=C1/OC(c2ccc(OC)cc2)=C(Cl)C1=O"
  READOUT QUALIFIER: "="
  TGI / µM: 11.3
- COMPOUND SMILES: "CNC(=O)OCc1c2ccncc2c(C)c2c1[nH]c1ccc(OC)cc12"
  READOUT QUALIFIER: "="
  TGI / µM: 2.48
- COMPOUND SMILES: "CCO/C=N/C1=C(C#N)SC2=N/C(=C\\c3ccccc3)C(=O)N21"
  READOUT QUALIFIER: ">"
  TGI / µM: 80.4

====

# System: KM12 colon
# PROTOCOL DESCRIPTION: NCI tumour cell line growth inhibition, 48 h; in the data active = GI50 below about 0.43 µM; inactive = the rest
Labels: 1 for active, -1 for inactive

- COMPOUND: "O=C1NOC(c2ccc(O)cc2)(c2ccc(O)cc2)c2ccccc21"
  DISCRETE LABEL: -1
- COMPOUND: "COc1cc([N+](=O)[O-])c(OC)cc1-c1nc2sccn2c1/C=N/N=C(N)N"
  DISCRETE LABEL: -1
- COMPOUND: "Cc1ccc(-c2csc(NC(=O)N3CCN(c4cc5c(cc4F)c(=O)c(C(=O)O)cn5C4CC4)CC3)n2)cc1"
  DISCRETE LABEL: -1
- COMPOUND: "Cc1cnc(CNC(=O)c2c(=O)c3ccc(N4CCCN(C)CC4)nc3n3c2sc2ccccc23)cn1"
  DISCRETE LABEL: -1
- COMPOUND: "CC1=C(CCC(C)NCc2ccc(OCCCN3CCCCC3)cc2)C(C)(C)CCC1 (stereo unspecified)"
  DISCRETE LABEL: -1
- COMPOUND: "CC(=O)[CH-]C(=O)c1ccccc1.CC(=O)[CH-]C(=O)c1ccccc1.CC(=O)[CH-]C(=O)c1ccccc1.[In+3]"
  DISCRETE LABEL: -1
- COMPOUND: "CN(C)c1ccc(C(=NO)c2ccc(N(C)C)cc2)cc1"
  DISCRETE LABEL: -1
- COMPOUND: "COc1cnc2c(c1)C(=O)c1c-2n(CCCNC2=NCCS2)c(=O)c2cc(Cl)ccc12"
  DISCRETE LABEL: -1
- COMPOUND: "CC(C)(C)c1[nH]nc2c1C(c1cc3ccccc3[nH]c1=O)Nc1cc(C(=O)OCc3ccccc3)ccc1N2 (stereo unspecified)"
  DISCRETE LABEL: -1
- COMPOUND: "C#CCNCCN1C(=O)c2ccc3c4c(ccc(c24)C1=O)C(=O)N(CCNCC#C)C3=O"
  DISCRETE LABEL: -1
- COMPOUND: "N#CSCc1ccc(Cl)c(CSC#N)c1"
  DISCRETE LABEL: -1
- COMPOUND: "COc1ccc(C2=CC(c3ccc(OC)cc3Br)N3C=CSC3=N2)cc1 (stereo unspecified)"
  DISCRETE LABEL: -1
- COMPOUND: "COc1ccccc1CNCCCN1C(=O)c2ccc3c4c(ccc(c24)C1=O)C(=O)N(CCCN)C3=O"
  DISCRETE LABEL: -1
- COMPOUND: "Cc1cn2c(/C=C3/C(=O)Nc4ccc(O)cc43)c(C)nc2s1"
  DISCRETE LABEL: -1
- COMPOUND: "CCOC(=O)c1cc2c(n1Cc1cc(OC)c(OC)c(OC)c1)-c1oncc1CCC2"
  DISCRETE LABEL: 1
- COMPOUND: "CCSc1nc(SCC)c2c(-c3ccc(OC)c(OC)c3)c(C#N)c(SCC)nc2n1"
  DISCRETE LABEL: -1
